Test system: Staphylococcus aureus
Measurement protocol: Antimicrobial activity against methicillin-resistant Staphylococcus aureus 003
Assay type: functional
Quantity measured: MIC

Below are worked cases with known answers.
CC1(C)CC[C@]2(C(=O)O)CC[C@]3(C)C(=CC[C@@H]4[C@@]5(C)CC[C@H](OCC(O)CCCCNC(=N)N)C(C)(C)[C@@H]5CC[C@]43C)[C@@H]2C1 (stereo partly specified) :: 2 µg/mL
CC(=O)O[C@H]1CC[C@]2(C)[C@H]3CC=C4[C@@H]5CC(C)(C)CC[C@]5(C(=O)NCCc5ccccc5)CC[C@@]4(C)[C@]3(C)CC[C@H]2C1(C)C :: > 64 µg/mL
CC1(C)CC[C@]2(C(=O)O)CC[C@]3(C)C(=CC[C@@H]4[C@@]5(C)CC[C@H](OCC(O)CCCN)C(C)(C)[C@@H]5CC[C@]43C)[C@@H]2C1 (stereo partly specified) :: 4 µg/mL
CC(=O)O[C@H]1CC[C@]2(C)[C@H]3CC=C4[C@@H]5CC(C)(C)CC[C@]5(C(=O)NCCCCCCCCN)CC[C@@]4(C)[C@]3(C)CC[C@H]2C1(C)C :: 8 µg/mL
CC1(C)CC[C@]2(C(=O)O)CC[C@]3(C)C(=CC[C@@H]4[C@@]5(C)CC[C@H](OCC(O)CNCc6ccoc6)C(C)(C)[C@@H]5CC[C@]43C)[C@@H]2C1 (stereo partly specified) :: > 64 µg/mL

# context switch: different molecule, same MIC
Give a short answer stating reported MIC for `CCCCCCCCC(=O)O[C@H]1CC[C@]2(C)[C@H]3CC=C4[C@@H]5CC(C)(C)CC[C@]5(C(=O)O)CC[C@@]4(C)[C@]3(C)CC[C@H]2C1(C)C` .
> 64 µg/mL

---

Test system: Staphylococcus aureus
Measurement protocol: Antimicrobial activity against methicillin-resistant Staphylococcus aureus 003
Type: functional
Quantity measured: MIC

CC(=O)O[C@H]1CC[C@]2(C)[C@H]3CC=C4[C@@H]5CC(C)(C)CC[C@]5(C(=O)NCCCCNC(=N)N)CC[C@@]4(C)[C@]3(C)CC[C@H]2C1(C)C :: 2 µg/mL

Retrieve MIC measured for `CCNC(=O)[C@]12CCC(C)(C)C[C@H]1C1=CC[C@@H]3[C@@]4(C)CC[C@H](OC(C)=O)C(C)(C)[C@@H]4CC[C@@]3(C)[C@]1(C)CC2` and print it.
> 64 µg/mL

Specify reported MIC for the molecule shown: `C[C@H]1[C@H](C)CC[C@]2(C)CC[C@]3(C)C(=CC(=O)[C@@H]4[C@@]5(C)CC[C@@H](O)[C@](C)(C(=O)O)[C@@H]5CC[C@]43C)[C@H]12`
16 µg/mL

Provide MIC value for the following molecule: CN(C)CC(O)CO[C@H]1CC[C@]2(C)[C@H]3CC=C4[C@@H]5CC(C)(C)CC[C@]5(C(=O)O)CC[C@@]4(C)[C@]3(C)CC[C@H]2C1(C)C (stereo partly specified)
> 64 µg/mL

Annotate the molecule `CC1(C)CC[C@]2(C(=O)O)CC[C@]3(C)C(=CC[C@@H]4[C@@]5(C)CC[C@H](OC(=O)CCCC(=O)O)C(C)(C)[C@@H]5CC[C@]43C)[C@@H]2C1` with its measured MIC.
32 µg/mL

Look up and report measured MIC for this entry: CC1(C)CC[C@]2(C(=O)O)CC[C@]3(C)C(=CC[C@@H]4[C@@]5(C)CC[C@H](OCC(O)CN6CCCCC6)C(C)(C)[C@@H]5CC[C@]43C)[C@@H]2C1 (stereo partly specified)
> 64 µg/mL

Please look at this molecule and report its MIC: `C[C@H]1[C@H](C)CC[C@]2(C(=O)O)CC[C@]3(C)C(=CC[C@@H]4[C@@]5(C)CC[C@H](O)C(C)(C)[C@@H]5CC[C@]43C)[C@H]12`
64 µg/mL

Answer with reported MIC of CC1(C)CC[C@]2(C(=O)O)CC[C@]3(C)C(=CC[C@@H]4[C@@]5(C)CC[C@H](OC(=O)CCC(=O)O)C(C)(C)[C@@H]5CC[C@]43C)[C@@H]2C1 [OLEANOLIC ACID 3-O-SUCCINATE]
16 µg/mL

Identify measured MIC associated with CCNCC(O)CO[C@H]1CC[C@]2(C)[C@H]3CC=C4[C@@H]5CC(C)(C)CC[C@]5(C(=O)O)CC[C@@]4(C)[C@]3(C)CC[C@H]2C1(C)C (stereo partly specified)
> 64 µg/mL

Quote MIC reported for `C[C@H]1[C@H](C)CC[C@]2(C)CC[C@]3(C)C(=CC[C@@H]4[C@@]5(C)CC[C@H](O)C(C)(C)[C@@H]5CC[C@]43C)[C@H]12` please.
> 512 µg/mL

Dear colleague, please send me the reported MIC for `CC(=O)O[C@H]1CC[C@]2(C)[C@H]3CC=C4[C@@H]5CC(C)(C)CC[C@]5(C(=O)NCCCCN)CC[C@@]4(C)[C@]3(C)CC[C@H]2C1(C)C` when you can.
4 µg/mL

Report MIC, nothing else, for this molecule: `CCCCCCCCCCCCC(=O)O[C@H]1CC[C@]2(C)[C@H]3CC=C4[C@@H]5CC(C)(C)CC[C@]5(C(=O)O)CC[C@@]4(C)[C@]3(C)CC[C@H]2C1(C)C`
> 64 µg/mL

Report MIC for `C[C@H]1[C@H](C)CC[C@]2(C)CC[C@]3(C)C(=CC[C@@H]4[C@@]5(C)CC[C@@H](O)[C@](C)(C(=O)O)[C@@H]5CC[C@]43C)[C@H]12`
8 µg/mL

State its MIC: CC1(C)CC[C@]2(C(=O)O)CC[C@]3(C)C(=CC[C@@H]4[C@@]5(C)CC[C@H](OCC(O)CCCNC(=N)N)C(C)(C)[C@@H]5CC[C@]43C)[C@@H]2C1 (stereo partly specified)
> 2 µg/mL

Find the measured MIC of `CCCCCCCCCCCCCOC(=O)[C@]12CCC(C)(C)C[C@H]1C1=CC[C@@H]3[C@@]4(C)CC[C@H](O)C(C)(C)[C@@H]4CC[C@@]3(C)[C@]1(C)CC2` and report it.
> 64 µg/mL

Consider the molecule `CCCOC(=O)[C@]12CCC(C)(C)C[C@H]1C1=CC[C@@H]3[C@@]4(C)CC[C@H](O)C(C)(C)[C@@H]4CC[C@@]3(C)[C@]1(C)CC2` . State its measured MIC.
> 64 µg/mL

Fill in MIC for record `CC(=O)O[C@H]1CC[C@]2(C)[C@H]3CC=C4[C@@H]5CC(C)(C)CC[C@]5(C(=O)NCCCN)CC[C@@]4(C)[C@]3(C)CC[C@H]2C1(C)C`
2 µg/mL

Specify reported MIC for the molecule shown: `CC1(C)CC[C@]2(C(=O)O)CC[C@]3(C)C(=CC[C@@H]4[C@@]5(C)CC[C@H](O)C(C)(C)[C@@H]5CC[C@]43C)[C@@H]2C1`
64 µg/mL

Please report the measured MIC for `CC1(C)S[C@@H]2[C@H](NC(=O)[C@H](N)c3ccccc3)C(=O)N2[C@H]1C(=O)O`
> 128 µg/mL

# return recorded MIC for entry `CC(=O)O[C@H]1CC[C@]2(C)[C@H]3CC=C4[C@@H]5CC(C)(C)CC[C@]5(C(=O)NCc5ccc(F)cc5)CC[C@@]4(C)[C@]3(C)CC[C@H]2C1(C)C`
> 64 µg/mL

Give MIC for `C[C@H]1[C@H](C)CC[C@]2(C(=O)O)CC[C@]3(C)C(=CC[C@@H]4[C@@]5(C)CCC(=O)C(C)(C)[C@@H]5CC[C@]43C)[C@H]12`
128 µg/mL

---

Tested on: Staphylococcus aureus
Measurement protocol: Antimicrobial activity against Staphylococcus aureus 31
Type: functional
Quantity measured: MIC (µg/mL)
Number in µg/mL, nothing else.

CC1(C)CC[C@]2(C(=O)O)CC[C@]3(C)C(=CC[C@@H]4[C@@]5(C)CC[C@H](OCC(O)CCCN)C(C)(C)[C@@H]5CC[C@]43C)[C@@H]2C1 (stereo partly specified) :: 8
CC1(C)CC[C@]2(C(=O)O)CC[C@]3(C)C(=CC[C@@H]4[C@@]5(C)CC[C@H](OC(=O)CCC(=O)O)C(C)(C)[C@@H]5CC[C@]43C)[C@@H]2C1 [OLEANOLIC ACID 3-O-SUCCINATE] :: 32

Look up MIC of CC1(C)CC[C@]2(C(=O)O)CC[C@]3(C)C(=CC[C@@H]4[C@@]5(C)CC[C@H](OCC(O)CCCCCCCCN)C(C)(C)[C@@H]5CC[C@]43C)[C@@H]2C1 (stereo partly specified) and report it.
32

Answer with reported MIC of `CC(=O)O[C@H]1CC[C@]2(C)[C@H]3CC=C4[C@@H]5CC(C)(C)CC[C@]5(C(=O)NCCCNC(=N)N)CC[C@@]4(C)[C@]3(C)CC[C@H]2C1(C)C`
1

For CC1(C)CC[C@]2(C(=O)O)CC[C@]3(C)C(=CC[C@@H]4[C@@]5(C)CC[C@H](OCC(O)CCCCCCCCNC(=N)N)C(C)(C)[C@@H]5CC[C@]43C)[C@@H]2C1 (stereo partly specified) , write its MIC.
16

For the compound `CC1(C)CC[C@]2(C(=O)O)CC[C@]3(C)C(=CC[C@@H]4[C@@]5(C)CC[C@H](OC(=O)CCCC(=O)O)C(C)(C)[C@@H]5CC[C@]43C)[C@@H]2C1` , report MIC.
64

For the compound `CC(=O)O[C@H]1CC[C@]2(C)[C@H]3CC=C4[C@@H]5CC(C)(C)CC[C@]5(C(=O)NCCCN)CC[C@@]4(C)[C@]3(C)CC[C@H]2C1(C)C` , report MIC.
8
